Tested on: K562 (human chronic myelogenous leukemia) cells
measurement-notes: MTT reduction cytotoxicity assay, K562
Format: cell-based
assay-context: 72 h, ± S.E.M., max tested 100 µM
endpoint-name: IC50 (µM)
Give the value, in units of µM, as a plain number.

For reference, reported IC50 for N.N.[Cl][Pt][Cl] [Cisplatin, reference compound] stands at 9.4

---

endpoint-name: melting point

Known melting point results, listed for orientation:
For reference, reported melting point for Cc1ccc(Cn2cc(CNNC(=O)c3cn4ccccc4n3)nn2)cc1 [Compound 11e] stands at 140 to 142 °C

For reference, reported melting point for O=C(NN=Cc1ccc(Br)cc1)c1cn2ccccc2n1 [Compound 7d] stands at 230 to 232 °C

New cases:
For reference, reported melting point for O=C(NN=Cc1ccccc1)c1cn2ccccc2n1 [Compound 7a] stands at 257 to 259 °C

For reference, reported melting point for O=C(NNCc1cn(Cc2ccc(Br)cc2)nn1)c1cn2ccccc2n1 [Compound 11d] stands at 186 to 188 °C

For reference, reported melting point for O=C(NNCc1cn(Cc2ccc(Cl)cc2)nn1)c1cn2ccccc2n1 [Compound 11c] stands at 193 to 195 °C
